# targetEntity: T1, soluble human CTLA-4 expressed with a C-terminal myc-myc-polyhistidine tag (human)
# T1 construct: soluble protein; also called hCTLA-4.mmh; hCTLA4.mmh
# T1 sequence (chain, as listed by the source limits assumed): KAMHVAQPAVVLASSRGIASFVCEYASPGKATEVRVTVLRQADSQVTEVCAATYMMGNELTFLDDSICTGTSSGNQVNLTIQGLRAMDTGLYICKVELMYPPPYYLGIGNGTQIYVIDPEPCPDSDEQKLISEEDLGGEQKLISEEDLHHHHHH
# methodSummary: SPR, mAb capture, 25 C
Decide by kon: equal to or exceeding 500000 M⁻¹ s⁻¹ means met, less means not met.

In: Can H1H19294P (antibody, human IgG1, V domains shown) VH: QVQLVQSGAEVKMSGASVRVSCKASGYTFTSYGISWMRQAPGQGLEWMGWITAYNGNSNYAQKLQGRVTMTTDTSTGTAYMELRSLTSDDTAVYYCARRGDYLGVFPYWGQGTLVTVSS VL: DIQMTQSPSSLSASVGDRVTITCRASQSISSYLNWYQQKPGKAPNLLIYTASSLQSGVPSRFSGSGSGTDFTLTISSLQPEDFATYYCQQSYSSPLTFGGGTKVEIK be said to have kon at or above 500000 M⁻¹ s⁻¹?
Out: not met

In: Can H1H20361N (antibody, human IgG1, V domains shown, here with human IgG1 Fc (H1H)) VH: QVQLQESGPGLVKPSQTLSLTCTVSGGSINNGGHYWTWIRQHPGKGLEWIGYIYYIGTTYYNPSLESRLSLSVDTSKNQFSLKLSSVTAADTAIYYCARSSLSVSEAFDVWGQGTMVTVSS VL: DIQMTQSPSSLSASVGDRITITCRGSQNIGSFLSWYQQRPGKAPKLLIFGAYNLQGGVPSRFSGSGSGTDFTLTISSLQPEDFATYFCQQSYSTPPITFGQGTRLEIK be said to have kon at or above 500000 M⁻¹ s⁻¹?
Out: not met

In: Can H1H19312P (antibody, human IgG1, V domains shown) VH: QVQLQESGPGLVKPSETLSLTCTVSGGSISSYHWSWIRQPLGKGLEWIGYIYYSGSTNYNPSLKSRVTISVDTSKNQFSLKLSSVTAADTAVYYCARGGSSIWPFDYWGQGTLVTVSS VL: DIQMTQSPSTLSASVGDRVTITCRASQSISSWLAWYQQKSGKAPKLLISKASTLESGVPSRFSGSGSGTEFTLTISSLQPDDFATYYCQQYNIYSWTFGQGTKVEIK be said to have kon at or above 500000 M⁻¹ s⁻¹?
Out: not met

***
In: Can H1H19269P (antibody, human IgG1, V domains shown) VH: EVQLVESGGGLVQPGGSLKLSCAASGFTFSGSAMHWVRQASGKGLEWVGRIRGKANSFATAYSASVKGRFTISRDDSKNTASLQMNSLRTEDTAVYFCTREDQQLVRPYYYHYGMDVWGQGTTVTVSS VL: DIQMTQSPSSLSASVGDRVTITCRTSQSITNYLNWYQQKPGKAPKLLIYATASLQSGVPSRFSGSGSETDFTLTISSLQPEDFATYYCQQSYSTPLTFGGGTKVEIK be said to have kon at or above 500000 M⁻¹ s⁻¹?
Out: not met

In: Can H1H20373N (antibody, human IgG1, V domains shown, here with human IgG1 Fc (H1H)) VH: EVQLLESGGGLVQPGGSLRLSCAASGFTFSSYAMSWVRQAPGKGLEWVSDISGSGLSTYYADSVKGRFAISRDNSKNMLYLQMNRLRAEDTAVYYCAKEPSHWNGEAFDIWGQGTMVTVSS VL: DIQMTQSPSSVSASVGDRVTITCRASQDISSWLAWYQQKPGKAPKLLIYTTANLQSGVPSRFSGSGSGTDFTLTISSLQSEDFATYYCQQANSFPFTFGSGTKVDIK be said to have kon at or above 500000 M⁻¹ s⁻¹?
Out: met

In: Can H1H19281P (antibody, human IgG1, V domains shown) VH: QVQLVESGGGVVQPGRSLRLSCAASGLTFSYYGMHWVRQAPGKGLEWVAVISYDGSNKYYADSVKGRFTISRDNSKNTLYLQMNSLRAEDAAVYYCAKDLGGDDYYGMDVWGQGTTVTVSS VL: EIVLTQSPGTLSLSPGERATLSCRASQSVSRTYLAWYQQKPGQAPRLLIYGAFSRATGIPDRFSGSGSGTDFTLTISRLEPEDFAVYYCQQYGSSPYTFGQGTKLEIK be said to have kon at or above 500000 M⁻¹ s⁻¹?
Out: not met

Hello, the source for this data is patent US20210040232A1, in case you need it.
